These entries and their values trace back to patent US10695296B2.

assay: PK characteristics in humans (plasma, LC/MS/MS); format: in vivo, human; conditions: human, plasma, oral, 120 mg, Day 15, 120 mg, n=3; read-out: Tmax
Observation Type: Tmax (h)
Numbers only, in h.

[ask] Which Tmax value belongs to Nc1cc(C(F)(F)F)c(-c2nc(N3CCOCC3)c3nc(-c4cccc(NS(=O)(=O)CCCF)c4F)ccc3n2)cn1 ?
[reply] 4

----------
assay: PK characteristics in humans (plasma, LC/MS/MS); type: in vivo, human; conditions: human, plasma, oral, 400 mg, Day 15, 400 bid mg, n=1; read-out: Cmax
Observation Type: Cmax (ng/mL)
Numbers only, in ng/mL.

[ask] Which Cmax value belongs to Nc1cc(C(F)(F)F)c(-c2nc(N3CCOCC3)c3nc(-c4cccc(NS(=O)(=O)CCCF)c4F)ccc3n2)cn1 [CMPD A] ?
[reply] 5900
